All figures here come from the OPERA property sets (Mansouri et al. 2018).

Let's look at some molecules and their measured logP.
measure.name: logP

>>> print(df.to_string())
                                   molecule  recorded_number
0                         O=C(O)COc1ccccc1I             2.33
1                          CCCCCCCCCC(=O)OC             4.41
2  CCC(OC(C)=O)C(CC(C)N(C)C)(c1ccccc1)c1ccccc1 (stereo not drawn)             4.27
3                  O=C(O)COc1ccc2c(c1)CCCC2             2.67
4                       c1ccc(-c2ncncn2)cc1             1.93
5  CC12CCC(O)CC1CCC1C2CCC2(C)C(C3=CC(=O)OC3)C(O)CC12O (stereo not drawn)              1.6
6                  CCCNc1nc(NC)nc(SC(F)F)n1             3.28
7                     CNC(=O)Oc1cccc(C#N)c1             0.97

---

measure.name: logP

>>> df
                                    compound  measure_name  recorded_number
 0                              Cc1cncc(C)c1          logP             1.78
 1  O=C1CN=C(c2ccccc2)c2cc([N+](=O)[O-])ccc2N1          logP             2.25
 2                          Clc1cccc2nccnc12          logP             1.75
 3  Nc1ncnc2c1ncn2C1CC(O)C(CO)O1 (stereo not given)          logP            -0.55
 4                          CCOC(=O)C(=O)OCC          logP             0.56
 5                               O=NN1CCSCC1          logP              0.4
 6  O=C(O)C(Cc1ccccc1)n1cccc1 (stereo not given)          logP             2.34
 7  OC(c1ccccc1)C(O)c1ccccc1 (stereo not given)          logP             1.91
 8  COc1cc2c(c(OC)c1O)-c1ccc(OC)c(=O)cc1[C@@H](NC(=O)C(F)(F)F)CC2          logP             1.67
 9        CCCCCCCCOc1ccccc1NC(=O)OCCN1CCCCC1          logP             6.36
10                          COc1cnnc2ccccc12          logP             1.41
11             O=[N+]([O-])c1nccn1CC(F)(F)CO          logP             0.04
12      CC1=C(N2CC2)C(=O)C(CCO)=C(N2CC2)C1=O          logP             0.49
13                             c1cc2ccsc2cn1          logP             1.74
14                        CC(=O)c1ccc(Cl)cc1          logP             2.32
15                      Brc1cc(Br)c(Br)cc1Br          logP             5.13
16        CN(C)C(=O)Nc1ccc(C(=O)c2ccccc2)cc1          logP             2.59
17                             O=C1CNC(=O)N1          logP            -1.69
18                     CC(C)(N)Cc1ccc(Cl)cc1          logP              2.6
19                           CC(C)(C)C(=O)NN          logP            -0.35

---

Let's look at some molecules and their measured logP.
measure.name: logP

molecule	measure.name	recorded.number
CN1CCN(Cc2ccc(C(=O)OCn3ncc4c(=O)[nH]cnc43)cc2)CC1	logP	1.47
CCOP(=S)(OCC)Oc1ccc(S(C)=O)cc1 (stereo unspecified)	logP	2.23
Clc1ccc(-c2cccc(Cl)c2Cl)cc1	logP	5.42
c1nc[nH]n1	logP	-0.58
CCOC(=O)C(C#N)=NNc1ccccc1Cl	logP	3.38
CS(=O)(=O)CCC(N)C(=O)O (stereo unspecified)	logP	-3.1
S=P(N1CC1)(N1CC1)N1CC1	logP	0.53
Cc1ccc2c(c1)C(=O)C=CC2=O	logP	2.1
CCCCC(C)=O	logP	1.38
Cc1ccc(Cl)cc1	logP	3.33
CC(=O)OC1CC(OC2C(O)CC(OC3C(C)OC(OC4CCC5(C)C(CCC6C5CC(O)C5(C)C(C7=CC(=O)OC7)CCC65O)C4)CC3OC(C)=O)OC2C)OC(C)C1O (stereo unspecified)	logP	2.45
CCC(=O)C1(c2cccc(OC(=O)OCC(C)C)c2)CCN(C)CC1	logP	2.38
CCC(C)c1ccccc1O (stereo unspecified)	logP	3.27
Cc1[nH]cnc1CSCCNc1cccc(=O)[nH]1	logP	0.79
COC(F)(F)C(Cl)Cl	logP	2.21
Cc1ccccc1C	logP	3.12

---

Let's look at some compounds and their measured logP.
measure.name: logP

                                    compound  recorded_number
 0  C#C[C@]1(O)CC[C@H]2[C@@H]3CCc4cc(O)ccc4[C@H]3CC[C@@]21C             3.67
 1       O=C1CCC(=O)N1c1ccc([N+](=O)[O-])cc1             0.46
 2                 FC(F)(F)c1ccccc1N=C1NCCN1             1.42
 3                            c1ccc2nnccc2c1             0.93
 4          O=C1C=C(N2CCCC2)C(=O)C=C1N1CCCC1             1.97
 5                            Fc1ccc(CCl)cc1             2.73
 6                         NC(=O)c1cccc(F)c1             0.91
 7  [N-]=[N+]=NC1CC(n2cnc3c(=O)[nH]c(N)nc32)OC1CO (stereo not given)            -0.33
 8                     CC1=CC(=O)C=C(Br)C1=O             1.21
 9                             O=c1cccc[nH]1            -0.58
10                  c1ccc2c(c1)[nH]c1ccccc12             3.72
11  O=[N+]([O-])c1ncn(CC(F)CO)n1 (stereo not given)             -0.8
12                               CC(=O)C(C)C             0.84
13             CCOP(=S)(OCC)SCSP(=S)(OCC)OCC             5.07
14                 CCCCNc1nc(NC)nc(SC(F)F)n1              3.7

---

Peptide text beside a SMILES is read from it.
Lab note: class by logP, see bottom bin (below 0.5), middle bin (0.5 to below 2), top bin (2 or more)

>>> print(df.to_string())
                                    compound  discrete_label
 0                          CCOP(=O)(OCC)OCC      middle bin
 1                                 COC(OC)OC      bottom bin
 2                                OCC(F)(F)F      bottom bin
 3       CC1CCCC(C)N1N=O (centres undefined)      middle bin
 4                           Nc1ccc2nccnc2c1      middle bin
 5                                  CCCCOCCO      middle bin
 6                            CCCCCCCOC(N)=O         top bin
 7  CC1CN1C1=C(F)C(=O)C(N2CC2C)=C(F)C1=O (centres undefined)      middle bin
 8                   Oc1c(Cl)c(Cl)cc(Cl)c1Cl         top bin
 9                   CCCCOc1cccc(OC(=O)NC)c1         top bin
10                                 Nc1ccccn1      bottom bin
11                    N#Cc1ccc2nc(N)[nH]c2c1      middle bin
12             ClC1=C(Cl)C(Cl)(Cl)C(Cl)=C1Cl         top bin
13  O=C(NCC(O)CO)c1c(I)c(N(CCO)C(=O)CO)c(I)c(N(CCO)C(=O)CO)c1I (centres undefined)      bottom bin
14  COc1ccc(S(I)=C(N(C)C)N(C)C)cc1 (centres undefined)      bottom bin
15  COc1ccc2cc(C(C)C(=O)OCC(=O)N(CCO)CCO)ccc2c1 (centres undefined)      middle bin
16                                O=C1C=CCO1      bottom bin
17  CC(=O)OCC(=O)[C@@]1(O)CC[C@H]2[C@@H]3CCC4=CC(=O)CC[C@]4(C)[C@H]3C(=O)C[C@@]21C         top bin
18             CC(=O)c1ccc(C(=O)OCCN(C)C)cc1      middle bin
19  CC(=O)N[C@@H](C)C(=O)N[C@@H](Cc1ccc(O)cc1)C(=O)N[C@@H](CC(C)C)C(N)=O (Ac-Ala-Tyr-Leu-NH2)      bottom bin
20                              Cc1ccc(C)cc1         top bin
21                    O=C(O)CCCn1nnc2ccccc21      bottom bin
22                   Clc1cccc(C(Cl)(Cl)Cl)n1         top bin
